Target: T1, Human-Fc-tagged SARS-CoV2 S1 recombinant protein (Sino Biologicals) (SARS-CoV-2, UniProt P0DTC2 16-685)
T1 construct: domain: S1; Bought reagent
Assay: ELISA on coated S1-hFc, 0.85 µg/ml; rabbit antibody in B-cell supernatant
value_kind: EC50 (µg/mL)
Enter your answer as a number in µg/mL; do not include the unit.

Solved cases (4 shown):
>>> val("P043.A.00092.C12 (antibody, V domains shown, also called 472; protein sample ID 472) VH: QEELKETGGGLVQPGGSLTLSCKASGFDFSSYYMSWVRQAPGKGLEWIGVIYASKGSTDYASWVNGRFTISSDNAQNTVDLQMNSLTAADTATYYCARSKRFYTYGYAGYAYAHYYYGMDLWGPGTLVTVSS VL: AIQMTQSPSSLAASVGDTVTITCKASEDIGYGLNWYQQKLGIAPKLLIYGADTLESGVPSRFSGSGSETDYTLTISSVQAEDAGIYYCQQGYSTPLTFGAGTKVEIK")
0.0068
>>> val("P043.A.00095.D06 (protein sample ID 470) (antibody, V domains shown, also called S1 targeting antibody 470; anti-S1-antibody 470) VH: QEQLEESGGDLVKPEGSLTLTCTASGFSFSSNYWICWVRQAPGKGLEWIGCIYIGSGDTYYASWAKGRFTISKTSSTTVTLQMTSLTAADTATYFCARSYTPGSYYNMNLWGPGTLVTVSS VL: DVVMTQTPSSVSAAVGGTVTINCQASQQISNELSWYQQKSGQPPKLLIYDASDLASGVPSRFKGSGSGTEFTLTISDLESADAATYYCQSTGGASSDGNAFGGGTEVVVK")
0.0101
>>> val("P043.A.00109.B12 (antibody, V domains shown, also called 468; protein sample ID 468) VH: QSLEESGGGLVKPEGSLTLTCKASGFDLNTYYYMCWVRQAPGKGLEWIACIATSDSGHTAYASWARGRFTISKTSSTTVTLQMTGLTAADTATYFCARGGRSVGDGVDLWGPGTLVTVSS VL: DIVMTQTPASVEAAVGGTVTIKCQASQSISSWLAWYQQKPGQPPKLLIYDASDLASGVPSRFKGSGSGTEFTLTISDLESADAATYYCQSYLYVESGSHGFGFGGGTEVVVR")
0.018
>>> val("P043.A.00097.B02 (antibody, V domains shown) VH: QELVESGGGLVQAGESLKLSCKASGIDFSSYGISWVRQAPGKGLEWIAYIYPGFGITNYANSVKGRFTISSDNAQNTVFLQMTSLTASDTATYFCTRAYASSSGYYIHYFNLWGPGTLVTVSS VL: AIQMTQSPSSLAASVGDTVTITCKASEDIGYGLNWYQQKLGIAPKLLIYGANTLESGVPSRFSGSGSETDYTLTISSVQAEDAGIYYCQQAYSTPLTFGAGTKVEIK")
0.0054

Alright, here's another binder for you.
Data request: Look up and report measured EC50 for this entry: P043.A.00117.C08 (protein sample ID 469) (antibody, V domains shown) VH: QSLEESGGGLVKPEGSLTLTCKASGFDLNTYYYMCWVRQAPGKGLEWIACIGTSDSGHTAYASWARGRFTISKTSSTTVTLQMTGLTAADTATYFCARGGRSVGDGVDLWGPGTLVTVSS VL: DIVMTQTPASVEAAVGGTVTIKCQASQSISSWLAWYQQKPGQPPKLLIYDAFDLASGVPSRFKGSGSGTEFTLTISDLESADAATYYCQSYLYGESGSHGFGFGGGTEVVVR
Data returned: 0.0151
